assay: In vivo pharmacokinetic analysis; conditions: mouse, serum, ip, 25 mg/kg, i.p. 25 mg/kg, read-out: t1/2 (half‐life) (converted)
Observed Property: half-life

• CC1(C)Oc2cc3oc(=O)ccc3cc2C[C@@H]1OC(=O)CCCCCNc1cccc2c1C(=O)N(C1CCC(=O)NC1=O)C2=O (stereo partly shown) = ~2 h

---

assay: In vivo pharmacokinetic analysis; details: serum, ip; mouse, i.p. 25 mg/kg; read-out: Ke (converted)
Observed Property: k el (s⁻¹)

* CC1(C)Oc2cc3oc(=O)ccc3cc2C[C@@H]1OC(=O)CCCCCNc1cccc2c1C(=O)N(C1CCC(=O)NC1=O)C2=O (stereo partly shown) | 0.00025

---

target: progerin (Mus musculus, UniProt P48678, DEL608-657); construct: endogenous in cells; experiment: Cellular thermal shift assay; details: CETSA, isothermal at 53 °C, Lmna^G609G/G609G fibroblasts; read-out: binding affinity by isothermal dose‐response fingerprint (IC50)
Sequence (P48678 with tags, fused parts or gaps DEL608-657 limits assumed): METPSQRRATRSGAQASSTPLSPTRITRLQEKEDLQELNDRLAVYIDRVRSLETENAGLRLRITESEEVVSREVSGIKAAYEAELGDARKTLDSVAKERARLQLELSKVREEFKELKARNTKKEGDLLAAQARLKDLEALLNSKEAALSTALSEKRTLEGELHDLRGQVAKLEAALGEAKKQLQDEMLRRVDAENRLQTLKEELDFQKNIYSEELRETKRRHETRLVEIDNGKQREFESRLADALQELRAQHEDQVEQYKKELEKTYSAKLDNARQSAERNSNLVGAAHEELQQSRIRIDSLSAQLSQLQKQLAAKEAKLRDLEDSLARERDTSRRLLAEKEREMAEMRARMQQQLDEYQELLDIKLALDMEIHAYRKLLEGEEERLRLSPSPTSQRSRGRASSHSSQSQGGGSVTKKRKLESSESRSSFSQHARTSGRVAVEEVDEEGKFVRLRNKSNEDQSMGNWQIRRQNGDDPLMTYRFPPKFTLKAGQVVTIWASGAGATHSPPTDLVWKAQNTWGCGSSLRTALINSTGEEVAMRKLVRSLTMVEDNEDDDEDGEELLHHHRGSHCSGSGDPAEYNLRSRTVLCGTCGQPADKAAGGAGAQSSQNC
Observed Property: IC50 (µM)

* CC1(C)Oc2cc3oc(=O)ccc3cc2C[C@@H]1OC(=O)CCCCCNc1cccc2c1C(=O)N(C1CCC(=O)NC1=O)C2=O (stereo partly shown) [compound 2] | 7

---

biological target: human serum albumin (Homo sapiens, UniProt P02768); experiment: Human serum albumin binding; details: read-out: HSA binding K D
Sequence (P02768 25-609): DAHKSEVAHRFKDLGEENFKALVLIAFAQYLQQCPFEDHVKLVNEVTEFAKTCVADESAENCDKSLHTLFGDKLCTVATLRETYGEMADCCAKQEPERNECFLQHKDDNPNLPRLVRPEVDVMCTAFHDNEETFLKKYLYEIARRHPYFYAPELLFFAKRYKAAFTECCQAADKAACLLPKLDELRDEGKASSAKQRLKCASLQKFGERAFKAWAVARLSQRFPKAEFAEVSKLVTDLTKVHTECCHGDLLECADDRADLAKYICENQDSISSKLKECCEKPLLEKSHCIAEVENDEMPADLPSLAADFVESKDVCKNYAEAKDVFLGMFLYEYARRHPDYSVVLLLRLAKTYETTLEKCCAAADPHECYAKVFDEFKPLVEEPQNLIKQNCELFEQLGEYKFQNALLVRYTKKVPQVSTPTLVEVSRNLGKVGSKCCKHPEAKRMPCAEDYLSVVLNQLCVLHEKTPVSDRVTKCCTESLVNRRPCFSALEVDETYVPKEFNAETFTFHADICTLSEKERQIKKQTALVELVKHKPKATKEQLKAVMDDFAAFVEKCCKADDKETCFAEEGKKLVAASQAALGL
Observed Property: Kd (µM)

* CC1(C)Oc2cc3oc(=O)ccc3cc2C[C@@H]1OC(=O)CCCCCNc1cccc2c1C(=O)N(C1CCC(=O)NC1=O)C2=O (stereo partly shown) [compound 2] | 5.8

---

test: Solubility in phosphate buffer solution; type: physicochemical; conditions: aqueous buffer; phosphate buffer solution (PBS, pH = 7.5)
Observed Property: solubility

- CC1(C)Oc2cc3oc(=O)ccc3cc2C[C@@H]1OC(=O)CCCCCNc1cccc2c1C(=O)N(C1CCC(=O)NC1=O)C2=O (stereo partly shown): 0.5 µM
